Hello, the source for this data is patent US4880817A, in case you need it.

Entries annotated with measured pIC50
system-under-test: Phosphodiesterase Fraction III (Canis lupus familiaris, UniProt A0A8I3NYE0)
Construct: The fraction III enzyme was isolated as an isomzyme from the crude canine heart homogenate; from tissue; host or cells: canine heart (crude homogenate, ion exchange chromatography)
Sequence (A0A8I3NYE0 1-1135): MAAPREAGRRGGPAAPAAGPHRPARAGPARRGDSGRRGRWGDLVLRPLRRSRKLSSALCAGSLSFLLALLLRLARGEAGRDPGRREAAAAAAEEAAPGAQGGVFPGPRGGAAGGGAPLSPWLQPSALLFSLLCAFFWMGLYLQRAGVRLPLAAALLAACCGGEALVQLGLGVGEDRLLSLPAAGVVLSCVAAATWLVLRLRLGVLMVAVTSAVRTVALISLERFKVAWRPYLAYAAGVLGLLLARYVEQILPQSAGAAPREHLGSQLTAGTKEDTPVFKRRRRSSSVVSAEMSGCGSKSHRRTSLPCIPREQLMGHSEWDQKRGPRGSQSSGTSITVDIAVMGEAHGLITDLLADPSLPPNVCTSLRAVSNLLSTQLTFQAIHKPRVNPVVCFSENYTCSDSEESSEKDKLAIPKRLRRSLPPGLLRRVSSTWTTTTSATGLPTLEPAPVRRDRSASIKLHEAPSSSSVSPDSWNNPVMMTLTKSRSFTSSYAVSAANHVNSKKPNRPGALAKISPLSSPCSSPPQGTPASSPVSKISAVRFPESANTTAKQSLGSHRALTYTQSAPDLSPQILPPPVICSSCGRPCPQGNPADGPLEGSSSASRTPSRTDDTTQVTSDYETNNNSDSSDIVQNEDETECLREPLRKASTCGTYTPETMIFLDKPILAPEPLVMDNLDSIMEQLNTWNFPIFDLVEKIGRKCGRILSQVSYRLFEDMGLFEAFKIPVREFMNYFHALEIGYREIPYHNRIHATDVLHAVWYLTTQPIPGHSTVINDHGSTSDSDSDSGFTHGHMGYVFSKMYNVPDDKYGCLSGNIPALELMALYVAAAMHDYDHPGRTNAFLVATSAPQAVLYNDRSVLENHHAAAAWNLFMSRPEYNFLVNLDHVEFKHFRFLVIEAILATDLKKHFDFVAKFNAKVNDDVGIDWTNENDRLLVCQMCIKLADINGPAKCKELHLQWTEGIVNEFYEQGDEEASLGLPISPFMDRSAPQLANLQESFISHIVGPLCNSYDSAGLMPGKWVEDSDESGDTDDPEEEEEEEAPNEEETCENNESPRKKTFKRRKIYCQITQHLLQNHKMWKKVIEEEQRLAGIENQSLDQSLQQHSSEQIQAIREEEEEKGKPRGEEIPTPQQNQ
experiment-notes: Inhibition of phosphodiesterase fraction III activity
Type: biochemical, canine
Reminder that pIC50 means the negative base-10 logarithm of the concentration expressed in mol/L.

| molecule | numeric-value |
| --- | --- |
| C=CCNC(=O)Nc1c(OC(=O)N(CC)CC)nc(C)c2cc(OCC)c(OC)cc12 [Cmpd 74] | 3.94 |
| CCOc1cc2c(C)nc(OC(=O)N3CCNCC3)c([N+](=O)[O-])c2cc1OC [Cmpd 71] | 4.66 |
| CCOc1cc2c(C)nc(OC(=O)N(C)C)c([N+](=O)[O-])c2cc1OC [Cmpd 10] | 4.35 |

**Query** Form entry - test system: Phosphodiesterase Fraction III (Canis lupus familiaris, UniProt A0A8I3NYE0); read-out: pIC50; molecule: COc1cc2c(C)nc(OC(=O)N(c3ccccc3)c3ccccc3)c([N+](=O)[O-])c2cc1OC [Cmpd 34]
**Result** 4.46

**Query** Query COc1cc2c(C)nc(OC(=O)N3CCNCC3)c([N+](=O)[O-])c2cc1OC [Cmpd 70] next
**Result** 4.11
